The measurements presented in this section are drawn from patent US20220204603A1.

- target: T1, mouse Ang2 (construct not stated) (mouse, UniProt O35608 19-496, limits assumed)
- T1 construct: also called mAng2
- T1 sequence (looked up): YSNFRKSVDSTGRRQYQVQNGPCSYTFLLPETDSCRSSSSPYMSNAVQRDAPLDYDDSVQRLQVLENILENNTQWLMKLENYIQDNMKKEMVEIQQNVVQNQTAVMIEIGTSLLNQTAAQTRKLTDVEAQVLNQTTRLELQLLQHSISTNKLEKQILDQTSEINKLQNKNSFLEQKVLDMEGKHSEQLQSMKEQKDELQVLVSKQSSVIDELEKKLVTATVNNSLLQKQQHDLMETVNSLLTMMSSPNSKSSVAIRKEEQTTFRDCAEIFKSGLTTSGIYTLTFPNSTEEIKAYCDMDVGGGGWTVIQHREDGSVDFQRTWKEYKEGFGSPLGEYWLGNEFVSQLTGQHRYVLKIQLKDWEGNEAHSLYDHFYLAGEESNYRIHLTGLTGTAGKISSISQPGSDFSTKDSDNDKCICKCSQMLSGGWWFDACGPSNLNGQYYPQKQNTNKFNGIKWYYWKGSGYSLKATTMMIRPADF
- test: SPR Biacore T200, antibody captured on protein A chip, Ang2 as analyte, 1:1 model
The reader will find reported koff values listed item by item below.
// note: answer is a bare numeric in s⁻¹

Previously resolved entries follow.
{"columns": ["binder", "unit-text", "koff"],
 "data": [
  ["No. 3 anti-Ang2 antibody (IgG) (antibody, V domains shown, IgG form: VH cloned into Invivogen pfusess-hchg1 (heavy chain constant region), VL into Invivogen pfuse2ss-hclk (light chain constant region); Expressed in Expi293F, purified on Protein A; also called 1D10) VH: QMQLVQSGGGLVQPGRSLKLSCAASGFSFDDYAMHWVRQAPGKGLEWVATIKDDGSQTYYVDSVKGRFTISRDNAKSSLFLQMNSLRAEDTAVYYCTTEGLMNGLHFDMWGQGTMVTVSS VL: LVLTQPPSVSGAPGQGVTISCTGSSSNIGAGYDVHWYQQFPGTAPKLLISGNNNRPSGLPDRFSGSKSGTSASLAITGLQAEDEADYYCQSYDSRLGVVFGGGTKLTVLG", "s⁻¹", "8.53e-05"],
  ["No. 8 anti-Ang2 antibody (IgG) (antibody, V domains shown, IgG form: VH cloned into Invivogen pfusess-hchg1, VL into Invivogen pfuse2ss-hclk; also called 3A10) VH: QVQLVESGGGLVKPGGSLRLSCAASGFTFSSYSMNWVRQAPGKGLEWVSSISASDGATYYADSVRGRFTISRDNSRSTLYLQMNSLRAEDTAVYYCAKILAGYSGPMGGMDVWGQGTTVTVSS VL: DIQMTQSPSSLSASVGDRVTITCRASRDISNYLAWYQQKPGKAPKSLIYGASNLQSGVSSQFSGSGSGTDFTLTINSLQPEDSATYYCQQYYSYPLTFGGGTKVDIKR", "s⁻¹", "6.69e-05"]
]}

Kindly consider the entry below.
-- ask What measured koff goes with No. 46 anti-Ang2 antibody (IgG) (antibody, V domains shown, IgG form: VH cloned into Invivogen pfusess-hchg1, VL into Invivogen pfuse2ss-hclk; also called 3C6) VH: QVQLVESGGGLVQPGRSLRLSCAASGFTFDDCAMHWVRQAPGKGLEWVSGISGNSKNVAYADSVKGRFSISRDDAKNSLYLQMNSLRAEDTAVYYCARDPAYSQFDYWGQGTLITVSS VL: QSALTQPPSLSATPGQRVTISCSGSSSNVGGYPVNWYQQVPGAAPKLLMYTDYKRPSGVPDRFFGSKSGTSASLAISGLQSEDEADYYCATWDDNLNGYVFGTGTKVTVLG ?
-- reply 8.94e-05
